- experimentalSystem: Ang2 with A449 mutated with alanine, tagged with FLAG (human) (UniProt O15123)
- Sequence (O15123 other isoform, or with tags, fused parts or gaps, change not shown): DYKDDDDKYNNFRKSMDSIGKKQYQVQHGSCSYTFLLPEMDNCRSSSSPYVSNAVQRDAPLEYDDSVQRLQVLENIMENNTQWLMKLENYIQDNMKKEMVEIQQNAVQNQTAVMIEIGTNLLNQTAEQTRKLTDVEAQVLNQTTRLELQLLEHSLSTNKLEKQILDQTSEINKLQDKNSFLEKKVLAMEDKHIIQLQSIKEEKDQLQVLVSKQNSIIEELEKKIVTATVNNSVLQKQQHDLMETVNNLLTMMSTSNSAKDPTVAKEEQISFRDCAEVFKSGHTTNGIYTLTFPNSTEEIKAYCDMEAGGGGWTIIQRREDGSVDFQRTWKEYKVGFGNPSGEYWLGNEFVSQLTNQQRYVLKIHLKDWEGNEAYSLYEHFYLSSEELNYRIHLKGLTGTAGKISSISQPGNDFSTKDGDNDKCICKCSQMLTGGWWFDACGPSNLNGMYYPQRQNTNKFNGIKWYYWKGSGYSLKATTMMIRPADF
- experiment: ELISA, scFv coated, 250 ng FLAG-tagged Ang2 mutant, anti-FLAG-HRP
# Relative binding (%) with Mutant Ang2 compared to the binding with native Ang2 >= 10% gives MET, anything below gives NOT MET

Answered examples (5):
binder	labelClass
SAIT-ANG-2-AB-4-F11 (scFv form) (scFv, V domains shown, scFv from a phage display library) VH: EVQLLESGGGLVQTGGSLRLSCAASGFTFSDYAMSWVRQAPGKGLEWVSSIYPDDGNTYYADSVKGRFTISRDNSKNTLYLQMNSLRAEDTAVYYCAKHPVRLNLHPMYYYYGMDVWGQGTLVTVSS VL: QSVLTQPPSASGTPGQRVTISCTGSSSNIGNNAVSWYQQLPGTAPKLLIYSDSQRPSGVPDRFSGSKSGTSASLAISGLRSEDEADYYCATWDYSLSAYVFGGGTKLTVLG	MET
SAIT-ANG-2-AB-4-C11 (scFv form) (scFv, V domains shown, scFv from a phage display library) VH: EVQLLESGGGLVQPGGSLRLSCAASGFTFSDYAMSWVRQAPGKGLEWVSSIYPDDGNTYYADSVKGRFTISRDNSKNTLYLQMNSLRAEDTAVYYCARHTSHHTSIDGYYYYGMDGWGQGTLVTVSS VL: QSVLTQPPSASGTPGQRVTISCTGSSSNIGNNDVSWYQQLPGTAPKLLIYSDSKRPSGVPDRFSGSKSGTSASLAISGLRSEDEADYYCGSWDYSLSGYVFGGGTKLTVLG	NOT MET
SAIT-ANG-2-AB-2-E6 (scFv form) (scFv, V domains shown, scFv from a phage display library, partly purified from E. coli periplasm on Ni-NTA and detected with anti-HA) VH: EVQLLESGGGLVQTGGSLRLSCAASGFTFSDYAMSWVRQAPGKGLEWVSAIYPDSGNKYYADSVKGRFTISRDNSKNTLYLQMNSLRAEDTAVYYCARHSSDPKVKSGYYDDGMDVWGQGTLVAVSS VL: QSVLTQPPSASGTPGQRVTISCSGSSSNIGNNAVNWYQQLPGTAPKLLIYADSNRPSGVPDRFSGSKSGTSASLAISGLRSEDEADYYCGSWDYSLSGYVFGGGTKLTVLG	NOT MET
SAIT-ANG-2-AB-7-C9 (scFv form) (scFv, V domains shown, scFv from a phage display library) VH: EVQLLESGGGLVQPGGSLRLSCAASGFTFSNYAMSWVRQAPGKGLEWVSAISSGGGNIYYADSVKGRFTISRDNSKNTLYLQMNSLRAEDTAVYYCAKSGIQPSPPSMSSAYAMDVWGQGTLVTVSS VL: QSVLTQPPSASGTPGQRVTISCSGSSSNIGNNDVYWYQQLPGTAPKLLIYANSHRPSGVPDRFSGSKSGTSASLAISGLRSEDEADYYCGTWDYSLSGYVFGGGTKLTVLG	MET
SAIT-ANG-2-AB-3-D3 (scFv form) (scFv, V domains shown, scFv from a phage display library) VH: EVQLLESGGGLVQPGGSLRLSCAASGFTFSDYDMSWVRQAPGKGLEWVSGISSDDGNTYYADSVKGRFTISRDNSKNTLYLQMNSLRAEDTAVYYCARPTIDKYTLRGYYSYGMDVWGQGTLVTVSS VL: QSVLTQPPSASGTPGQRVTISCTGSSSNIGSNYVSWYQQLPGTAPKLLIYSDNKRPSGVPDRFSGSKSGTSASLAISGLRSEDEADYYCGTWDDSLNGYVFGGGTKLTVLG	MET

From here, focus on the item given below.
Please check the record SAIT-ANG-2-AB-4-F5 (scFv form) (scFv, V domains shown, scFv from a phage display library) VH: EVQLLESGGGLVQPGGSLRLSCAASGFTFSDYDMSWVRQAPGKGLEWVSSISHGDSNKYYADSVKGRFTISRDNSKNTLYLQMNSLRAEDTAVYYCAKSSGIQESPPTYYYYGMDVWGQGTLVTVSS VL: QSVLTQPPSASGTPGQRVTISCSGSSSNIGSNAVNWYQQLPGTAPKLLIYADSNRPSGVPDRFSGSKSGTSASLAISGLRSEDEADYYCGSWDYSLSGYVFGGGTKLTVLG and state if its Relative binding (%) with Mutant Ang2 compared to the binding with native Ang2 is at or above 10%.
MET

Attribution: patent US20150152192A1
